- Tested on: L. donovani MHOM/IN/80/DD8 (ATCC50212)
- assay-info: L. donovani DD8 intracellular (THP-1) amastigote assay
- Type: cell-based
- condition: Leishmania donovani, read-out: antiparasitic pIC50 ± SE L. donovani (converted)
Task for the reader: assign each of the following molecules its reported IC50.

Cc1ccc(Cn2c(C)cn3cc([N+](=O)[O-])nc3c2=O)cc1 [25h] : > 39.8 µM
Cc1ccc(CCn2ccn3cc([N+](=O)[O-])nc3c2=O)cc1 [17n] : > 79.4 µM
Cc1cn2cc([N+](=O)[O-])nc2c(=O)n1Cc1ccc(OC(F)(F)F)cc1 [25f] : > 79.4 µM
O=c1c2nc([N+](=O)[O-])cn2ccn1Cc1cccc(OC(F)(F)F)c1 [17f] : > 79.4 µM
Cc1ccc(COc2nc(C)c(C)n3cc([N+](=O)[O-])nc23)cc1 [26e] : > 20 µM
Cc1cn2cc([N+](=O)[O-])nc2c(=O)[nH]1 [25a] : > 79.4 µM

// for each molecule in input: emit IC50
1. O=c1c2nccn2ccn1Cc1ccccc1 [20b, 7-Benzylimidazo[1,2-a]pyrazin-8(7H)-one]
2. Cc1cn2cc([N+](=O)[O-])nc2c(=O)n1Cc1cccc(OC(F)(F)F)c1 [25j]
3. O=c1c2nc([N+](=O)[O-])cn2ccn1C1CCCCC1 [17t]

1. > 79.4 µM
2. > 20 µM
3. > 79.4 µM

* * *

- assay-info: in vitro
- condition: human, Caco-2, pH 7.4
observed-property: Papp B→A at 2 h, 2 µM (×10⁻⁶ cm/s)
Numbers only, in ×10⁻⁶ cm/s.

Could you tell me which Papp B→A at 2 h, 2 µM is on file for O=[N+]([O-])c1cn2c(n1)OC[C@@H](OCc1ccc(OC(F)(F)F)cc1)C2 [pretomanid 6, pretomanid, reference compound] ?
22

* * *

- assay-info: Mammalian cytotoxicity assay (resazurin), HEK293
- condition: human, HEK293 cells
observed-property: CC50 at 24 h

Examples with answers:
Cc1cn2cc([N+](=O)[O-])nc2c(OCCO)n1 [25e] : > 100 µM
Cc1ccc(COc2nc(C)c(C)n3cc([N+](=O)[O-])nc23)cc1 [26e] : > 100 µM
O=C(NCc1ccccc1)c1nc([N+](=O)[O-])c[nH]1 [16b] : > 100 µM
Cc1nc(OCc2ccc(OC(F)(F)F)cc2)c2nc([N+](=O)[O-])cn2c1C [26c] : > 100 µM

Could you tell me which CC50 at 24 h is on file for CC(=O)OCCOc1nc(C)cn2cc([N+](=O)[O-])nc12 [25c] ?
> 100 µM

* * *

- assay-info: Mammalian cytotoxicity assay (resazurin), HEK293
- condition: human, HEK293 cells
observed-property: CC50 at 24 h

Examples with answers:
CC(=O)OCCn1c(-c2ccccc2)cn2cc([N+](=O)[O-])nc2c1=O [24b] : > 100 µM
O=c1c2nccn2ccn1Cc1ccc(F)cc1 [20c] : > 100 µM
Cc1cn2cc([N+](=O)[O-])nc2c(=O)n1Cc1ccccc1OC(F)(F)F [25l] : > 100 µM
O=[N+]([O-])c1cn2cc(-c3ccccc3)nc(OCCO)c2n1 [24e] : > 100 µM
O=c1c2nc([N+](=O)[O-])cn2ccn1C1CCCCC1 [17t] : 112 µM

// for each compound in input: emit CC50 at 24 h
1. Cc1cn2cc([N+](=O)[O-])nc2c(=O)n1CCO [25d]
2. Cc1ccc(Cn2cc([N+](=O)[O-])nc2C(N)=O)cc1 [28d]
3. NC(=O)c1nc([N+](=O)[O-])cn1Cc1ccccc1 [28b]
4. Cc1cn2cc([N+](=O)[O-])nc2c(=O)n1Cc1ccc(OC(F)(F)F)cc1 [25f]
5. Cc1cn2cc([N+](=O)[O-])nc2c(=O)n1Cc1cccc(OC(F)(F)F)c1 [25j]

1: > 100 µM; 2: > 100 µM; 3: > 100 µM; 4: > 100 µM; 5: > 100 µM

* * *

- assay-info: Plasma protein binding, ultrafiltration method
- Type: in vitro ADME
- condition: human plasma, % bound, read-out: PPB (%)
observed-property: fraction unbound at 30 min, 5 μM

Could you tell me which fraction unbound at 30 min, 5 μM is on file for Cc1cn2cc([N+](=O)[O-])nc2c(OCc2ccc(OC(F)(F)F)cc2)n1 [25g] ?
< 0.01

* * *

- assay-info: physchem
observed-property: solubility (µM)
Give bare numbers, in µM.

Could you tell me which solubility is on file for O=[N+]([O-])c1cn2c(n1)OC[C@@H](OCc1ccc(OC(F)(F)F)cc1)C2 [pretomanid 6, pretomanid, reference compound] ?
11.3

* * *

C. difficile (630, ATCC BAA-1382) data, read-out MIC

Examples with answers:
O=C(Cn1ccn2cc([N+](=O)[O-])nc2c1=O)N1CCOCC1 [17r] : > 64 mg/L
O=[N+]([O-])c1cn2ccnc(OCCc3ccc(OC(F)(F)F)cc3)c2n1 [18m] : 64 mg/L
CC(=O)OCCn1ccn2cc([N+](=O)[O-])nc2c1=O [17o] : > 64 mg/L
Cc1cn2cc([N+](=O)[O-])nc2c(=O)n1CCO [25d] : > 64 mg/L
CC(=O)OCCn1c(-c2ccccc2)cn2cc([N+](=O)[O-])nc2c1=O [24b] : 64 mg/L

// for each molecule in input: emit MIC
1. Cc1cn2cc([N+](=O)[O-])nc2c(=O)n1Cc1ccc(OC(F)(F)F)cc1 [25f]
2. Cc1ccc(CCn2ccn3cc([N+](=O)[O-])nc3c2=O)cc1 [17n]
3. NC(=O)Cn1ccn2cc([N+](=O)[O-])nc2c1=O [17s]

["> 64 mg/L", "> 64 mg/L", "> 64 mg/L"]

// for each molecule in input: emit MIC
1. Cc1[nH]c(=O)c2nc([N+](=O)[O-])cn2c1C [26a]
2. O=c1c2nc([N+](=O)[O-])cn2ccn1C1CCCCC1 [17t]
3. O=c1c2nc([N+](=O)[O-])cn2ccn1CCN1CCOCC1 [17q]
4. Cc1cn2cc([N+](=O)[O-])nc2c(=O)[nH]1 [25a]
5. Cc1nc(OCc2ccc(OC(F)(F)F)cc2)c2nc([N+](=O)[O-])cn2c1C [26c]
6. CC(=O)OCCOc1nc(C)cn2cc([N+](=O)[O-])nc12 [25c]
7. O=[N+]([O-])c1cn2cc(-c3ccccc3)nc(OCCO)c2n1 [24e]

["> 64 mg/L", "> 64 mg/L", "> 64 mg/L", "> 64 mg/L", "> 64 mg/L", "> 64 mg/L", "> 64 mg/L"]

* * *

Task for the reader: assign each of the following compounds its reported MIC.
- Test system: M. tuberculosis (H37Rv)
- assay-info: M. tuberculosis H37Rv resazurin reduction microplate MIC assay, normoxic conditions
- Format: cell-based
- condition: Mycobacterium tuberculosis, normoxia, read-out: antibacterial MIC M. tuberculosis normoxia
Numbers only, in µg/mL.

O=c1c2nc([N+](=O)[O-])cn2ccn1CCc1ccc(OC(F)(F)F)cc1 [17m] : 8

Could you tell me which MIC is on file for Cc1ccc(CCn2ccn3cc([N+](=O)[O-])nc3c2=O)cc1 [17n] ?
4

* * *

- assay-info: Kinetic solubility determination by LC-UV
- condition: water, Solubility µM (H2O), 24 h, room temperature, 1% DMSO
observed-property: solubility at 24 h (µM)
Give bare numbers, in µM.

O=c1c2nc([N+](=O)[O-])cn2cc(-c2ccccc2)n1CCO [24d] : 163

Shift focus to the following entry.
Could you tell me which solubility at 24 h is on file for Cc1ccc(Cn2c(C)cn3cc([N+](=O)[O-])nc3c2=O)cc1 [25h] ?
7.5

* * *

- Test system: L. donovani MHOM/IN/80/DD8 (ATCC50212)
- assay-info: L. donovani DD8 intracellular (THP-1) amastigote assay
- Assay type: cell-based
- condition: Leishmania donovani, read-out: antiparasitic pIC50 ± SE L. donovani (converted)
Task for the reader: assign each of the following compounds its reported IC50.

NC(=O)Cn1ccn2cc([N+](=O)[O-])nc2c1=O [17s] : > 79.4 µM
O=c1c2nc([N+](=O)[O-])cn2ccn1CCN1CCOCC1 [17q] : > 79.4 µM
Cc1cn2cc([N+](=O)[O-])nc2c(OCCO)n1 [25e] : > 79.4 µM
Cc1cn2cc([N+](=O)[O-])nc2c(OCc2ccc(OC(F)(F)F)cc2)n1 [25g] : > 79.4 µM
O=c1c2nc([N+](=O)[O-])cn2ccn1Cc1ccccc1OC(F)(F)F [17i] : > 39.8 µM

// for each compound in input: emit IC50
1. Cc1cccc(Cn2ccn3cc([N+](=O)[O-])nc3c2=O)c1 [17g]
2. O=c1c2nc([N+](=O)[O-])cn2ccn1Cc1ccccn1 [17k]
3. Cc1[nH]c(=O)c2nc([N+](=O)[O-])cn2c1C [26a]
4. O=c1c2nc([N+](=O)[O-])cn2ccn1Cc1ccccc1 [17b]
5. Cc1ccc(Cn2c(C)c(C)n3cc([N+](=O)[O-])nc3c2=O)cc1 [26d]
6. CC(=O)OCCn1c(C)cn2cc([N+](=O)[O-])nc2c1=O [25b]
7. Cc1cn2cc([N+](=O)[O-])nc2c(OCc2cccc(OC(F)(F)F)c2)n1 [25k]

1: > 20 µM; 2: > 79.4 µM; 3: > 79.4 µM; 4: > 79.4 µM; 5: > 39.8 µM; 6: > 79.4 µM; 7: > 39.8 µM

// for each compound in input: emit IC50
1. CC(=O)OCCOc1nc(-c2ccccc2)cn2cc([N+](=O)[O-])nc12 [24c]
2. Cc1cn2cc([N+](=O)[O-])nc2c(=O)n1Cc1ccccc1OC(F)(F)F [25l]

["> 79.4 µM", "> 39.8 µM"]
